Dear all, this message contains pKi results, target or system Squalene synthase (Rattus norvegicus, UniProt Q02769).
The quantity pKi is defined as the negative base-10 logarithm of the molar concentration.

Reference set, count: 4
[
  {
    "COMPOUND": "C=CCc1cc(CC(=O)OCC)ccc1C#CC1(O)CN2CCC1CC2 (stereo not given)",
    "pKi": 7.00
  },
  {
    "COMPOUND": "C=CCc1cc(CCCCCC(=O)OC)ccc1C#CC1(O)CN2CCC1CC2 (stereo not given)",
    "pKi": 7.70
  },
  {
    "COMPOUND": "C=CCc1cc(CCCC(=O)OC)ccc1C#CC1(O)CN2CCC1CC2 (stereo not given)",
    "pKi": 8.70
  },
  {
    "COMPOUND": "C=CCc1cc(CCCCC(=O)OC)ccc1C#CC1(O)CN2CCC1CC2 (stereo not given)",
    "pKi": 8.10
  }
]

So what's the measured pKi for this one? C=CCc1cc(CCC(=O)OC)ccc1C#CC1(O)CN2CCC1CC2 (stereo not given)
7.70

Quick check: pKi of C=CCc1cc(CCC(=O)OCC)ccc1C#CC1(O)CN2CCC1CC2 (stereo not given) ?
8.22
